# EXPERIMENTAL_TARGET: recombinant human DAO (diamine oxidase) (Homo sapiens, UniProt P19801)
# Construct: purchased R&D systems
# Sequence (P19801 20-751): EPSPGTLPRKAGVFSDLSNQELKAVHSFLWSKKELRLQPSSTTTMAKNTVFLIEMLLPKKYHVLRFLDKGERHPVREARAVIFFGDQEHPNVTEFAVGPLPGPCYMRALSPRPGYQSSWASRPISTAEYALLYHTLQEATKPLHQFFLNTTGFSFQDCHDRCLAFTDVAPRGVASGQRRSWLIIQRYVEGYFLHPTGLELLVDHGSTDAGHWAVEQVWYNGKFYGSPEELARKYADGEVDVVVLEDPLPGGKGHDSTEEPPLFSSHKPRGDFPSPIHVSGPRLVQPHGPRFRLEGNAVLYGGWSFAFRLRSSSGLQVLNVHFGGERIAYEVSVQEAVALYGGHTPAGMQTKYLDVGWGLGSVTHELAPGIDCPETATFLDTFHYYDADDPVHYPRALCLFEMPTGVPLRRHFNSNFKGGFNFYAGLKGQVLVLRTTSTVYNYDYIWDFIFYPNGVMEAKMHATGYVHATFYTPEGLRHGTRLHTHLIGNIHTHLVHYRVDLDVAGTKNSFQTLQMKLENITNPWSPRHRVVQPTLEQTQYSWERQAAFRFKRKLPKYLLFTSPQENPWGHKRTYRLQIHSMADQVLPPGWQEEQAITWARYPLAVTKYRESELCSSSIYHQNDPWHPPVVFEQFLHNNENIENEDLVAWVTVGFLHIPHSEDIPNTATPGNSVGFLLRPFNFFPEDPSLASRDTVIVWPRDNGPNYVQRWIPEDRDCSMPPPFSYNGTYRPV
# TEST_METHOD_NOTES: Activity on recombinant human DAO, method similar to the VAP-1 assay
# Assay type: biochemical
# SETTINGS: substrate 1 mM putrescine; read-out: Inhibitory Activity (IC50, nM) DAO
Where a name gives a salt, the structure may show the parent alone.
OUTCOME_MEASURE: IC50 (nM)

Worked cases, IC50 given:
>  <MOLECULE>
NC/C(=C\F)Cn1ncn(Cc2ccc(-c3cccc(N4CCNCC4)c3)s2)c1=O [Example 23, hydrochloride]

>  <RESULT_UNIT>
nM

>  <VALUE_REPORTED>
3200

$$$$
>  <MOLECULE>
NC/C(=C\F)Cn1ncn(Cc2ccc(C3=CCNCC3)s2)c1=O [Example 163]

>  <RESULT_UNIT>
nM

>  <VALUE_REPORTED>
300

$$$$

A = NC/C(=C\F)Cn1ncn(Cc2ccc(-c3cnc(N4CCOCC4)nc3)s2)c1=O [Example 57, hydrochloride]
B = CC(C)c1nc(-c2cccc(-c3ccc(Cn4cnn(C/C(=C/F)CN)c4=O)s3)c2)no1 [Example 38, hydrochloride]
Query: Form field 'greater IC50' accepts A or B ; which applies? Respond with the label that goes with your answer.
Response: B
(B: 2400 nM, A: 83 nM)

###

Reported IC50 values for the following molecules.
# EXPERIMENTAL_TARGET: recombinant human MAO-A (monoamine oxidase-A) (Homo sapiens)
# Construct: purchased Sigma-Aldrich
# Sequence (P21397 1-527): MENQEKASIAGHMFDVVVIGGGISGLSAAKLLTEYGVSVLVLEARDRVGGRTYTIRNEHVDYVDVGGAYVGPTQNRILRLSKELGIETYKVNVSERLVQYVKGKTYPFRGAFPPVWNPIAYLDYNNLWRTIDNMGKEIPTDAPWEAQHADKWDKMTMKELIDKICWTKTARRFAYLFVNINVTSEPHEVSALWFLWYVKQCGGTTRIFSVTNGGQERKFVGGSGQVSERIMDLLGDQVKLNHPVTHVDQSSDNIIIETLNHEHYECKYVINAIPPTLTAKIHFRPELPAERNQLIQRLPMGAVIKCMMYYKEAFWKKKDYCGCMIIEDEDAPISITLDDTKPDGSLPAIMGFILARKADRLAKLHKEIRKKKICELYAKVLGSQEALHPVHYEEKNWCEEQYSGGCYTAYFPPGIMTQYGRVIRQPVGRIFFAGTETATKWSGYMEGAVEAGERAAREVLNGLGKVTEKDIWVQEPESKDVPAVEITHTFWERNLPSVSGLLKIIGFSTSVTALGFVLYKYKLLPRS
# TEST_METHOD_NOTES: Activity on recombinant human MAO-A, method similar to the VAP-1 assay
# Type: biochemical
# SETTINGS: substrate 0.5 mM tyramine; read-out: Inhibitory Activity (IC50, nM) MAO-A
Where a name gives a salt, the structure may show the parent alone.

Worked cases, IC50 given:
>  <MOLECULE>
NC/C(=C\F)Cn1ncn(Cc2ccc(C#Cc3cnc4c(c3)NCCO4)s2)c1=O [Example 135]

>  <VALUE_REPORTED>
> 100000 nM

$$$$
>  <MOLECULE>
NC/C(=C\F)Cn1ncn(Cc2ccc(-c3ccc(CCO)cc3)s2)c1=O [Example 171]

>  <VALUE_REPORTED>
> 100000 nM

$$$$
>  <MOLECULE>
Cn1cnc2cc(/C=C/c3ccc(Cn4cnn(C/C(=C/F)CN)c4=O)s3)cnc21 [Example 123, hydrochloride]

>  <VALUE_REPORTED>
> 100000 nM

$$$$
>  <MOLECULE>
NC/C(=C\F)Cn1ncn(Cc2cc3cc(-c4ccc5c(c4)OCO5)ccc3s2)c1=O [Example 207]

>  <VALUE_REPORTED>
> 100000 nM

$$$$

Query: Look up IC50 for this molecule: NC/C(=C\F)Cn1ncn(Cc2ccc(C#Cc3ccc(N4CCOCC4)nc3)s2)c1=O [Example 129, hydrochloride]
Response: > 100000 nM

Query: Look up IC50 for this molecule: NC/C(=C\F)Cn1ncn(Cc2ccc(-c3cc4c(c(C(F)(F)F)c3)NC(=O)CC4)s2)c1=O [Example 81]
Response: > 100000 nM

Query: Look up IC50 for this molecule: CN1C(=O)CCc2cc(-c3ccc(CCn4cnn(C/C(=C/F)CN)c4=O)s3)ccc21 [Example 219]
Response: > 100000 nM

Query: Look up IC50 for this molecule: NC/C(=C\F)Cn1ncn(Cc2ccc(-c3ccc(C4CCOCC4)cc3)s2)c1=O [Example 25, hydrochloride]
Response: > 100000 nM

###

# EXPERIMENTAL_TARGET: recombinant human VAP-1 (Homo sapiens, UniProt Q16853)
# Construct: purchased R&D systems
# Sequence (Q16853 whole entry): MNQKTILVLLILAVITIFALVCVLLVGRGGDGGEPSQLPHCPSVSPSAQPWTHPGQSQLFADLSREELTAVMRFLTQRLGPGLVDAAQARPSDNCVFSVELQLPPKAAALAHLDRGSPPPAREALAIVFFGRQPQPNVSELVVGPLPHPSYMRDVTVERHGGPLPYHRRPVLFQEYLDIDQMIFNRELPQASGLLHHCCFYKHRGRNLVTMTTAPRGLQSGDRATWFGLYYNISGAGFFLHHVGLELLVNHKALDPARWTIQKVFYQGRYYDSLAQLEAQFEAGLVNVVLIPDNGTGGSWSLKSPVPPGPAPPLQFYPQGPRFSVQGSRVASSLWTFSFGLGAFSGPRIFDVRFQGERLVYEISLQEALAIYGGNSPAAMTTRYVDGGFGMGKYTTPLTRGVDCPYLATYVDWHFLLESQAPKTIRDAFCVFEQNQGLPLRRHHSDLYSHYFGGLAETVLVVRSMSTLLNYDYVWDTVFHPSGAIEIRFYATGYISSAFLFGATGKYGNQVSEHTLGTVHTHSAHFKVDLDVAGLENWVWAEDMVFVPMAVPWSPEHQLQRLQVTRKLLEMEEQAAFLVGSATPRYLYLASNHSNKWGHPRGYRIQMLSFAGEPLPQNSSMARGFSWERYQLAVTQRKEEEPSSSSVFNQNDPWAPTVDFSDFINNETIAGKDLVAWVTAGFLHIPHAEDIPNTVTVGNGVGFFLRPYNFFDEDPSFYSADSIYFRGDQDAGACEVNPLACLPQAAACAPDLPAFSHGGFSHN
# TEST_METHOD_NOTES: Activity on recombinant human VAP-1, HRP-coupled Amplex Red hydrogen peroxide assay
# Type: biochemical
# SETTINGS: substrate 1 mM benzylamine; compound incubated with enzyme at 37° C. for 30 minutes; pH 7.4; read-out: Inhibitory Activity (IC50, nM) human VAP-1
Structures can show the parent of a compound that is named as a salt.
OUTCOME_MEASURE: IC50 (nM)

>  <COMPOUND>
NC/C(=C\F)Cn1ncn(Cc2ccc(-c3ccc(S(=O)(=O)N4CCOCC4)cc3)s2)c1=O [Example 29, hydrochloride]

>  <RESULT_UNIT>
nM

>  <VALUE_REPORTED>
1.4

$$$$
>  <COMPOUND>
CC(C)n1cc(-c2ccc(Cn3cnn(C/C(=C/F)CN)c3=O)s2)ccc1=O [Example 143]

>  <RESULT_UNIT>
nM

>  <VALUE_REPORTED>
1.4

$$$$
>  <COMPOUND>
NC/C(=C\F)Cn1ncn(Cc2ccc(-c3ccc(=O)n(Cc4ccccc4)c3)s2)c1=O [Example 191]

>  <RESULT_UNIT>
nM

>  <VALUE_REPORTED>
1.1

$$$$
>  <COMPOUND>
COC(=O)c1ccc(-c2ccc(Cn3cnn(C/C(=C/F)CN)c3=O)s2)cc1 [Example 10, hydrochloride]

>  <RESULT_UNIT>
nM

>  <VALUE_REPORTED>
1.5

$$$$

###

# EXPERIMENTAL_TARGET: recombinant human MAO-A (monoamine oxidase-A) (Homo sapiens)
# Construct: purchased Sigma-Aldrich
# TEST_METHOD_NOTES: Activity on recombinant human MAO-A, method similar to the VAP-1 assay
# Type: biochemical
# SETTINGS: substrate 0.5 mM tyramine; read-out: Inhibitory Activity (IC50, nM) MAO-A
Counter-ions that a name gives are not always drawn.
Reported IC50 values for the following compounds.

Worked cases, IC50 given:
>  <COMPOUND>
Cn1cc(-c2ccc(Cn3cnn(C/C(=C/F)CN)c3=O)s2)cn1

>  <EXPERIMENTAL_TARGET>
recombinant human MAO-A (monoamine oxidase-A) (Homo sapiens)

>  <OUTCOME_MEASURE>
IC50

>  <VALUE_REPORTED>
> 100000 nM

$$$$
>  <COMPOUND>
NC/C(=C\F)Cn1ncn(Cc2ccc(-c3ccc(CN4CCOCC4)nc3)s2)c1=O

>  <EXPERIMENTAL_TARGET>
recombinant human MAO-A (monoamine oxidase-A) (Homo sapiens)

>  <OUTCOME_MEASURE>
IC50

>  <VALUE_REPORTED>
> 100000 nM

$$$$
>  <COMPOUND>
NC/C(=C\F)Cn1ncn(Cc2ccc(-c3cnc4c(c3)CCC(=O)N4)s2)c1=O

>  <EXPERIMENTAL_TARGET>
recombinant human MAO-A (monoamine oxidase-A) (Homo sapiens)

>  <OUTCOME_MEASURE>
IC50

>  <VALUE_REPORTED>
> 100000 nM

$$$$

Query: Look up IC50 for this compound: NC/C(=C\F)Cn1ncn(Cc2ccc(-c3ccc(CO)cc3)s2)c1=O
Response: > 100000 nM

Query: Look up IC50 for this compound: NC/C(=C\F)Cn1ncn(Cc2ccc(-c3cccc4cnccc34)s2)c1=O [Example 114, hydrochloride]
Response: 143000 nM

###

# EXPERIMENTAL_TARGET: recombinant human MAO-B (monoamine oxidase-B) (Homo sapiens, UniProt P27338)
# Construct: purchased Sigma-Aldrich
# Sequence (P27338 whole entry): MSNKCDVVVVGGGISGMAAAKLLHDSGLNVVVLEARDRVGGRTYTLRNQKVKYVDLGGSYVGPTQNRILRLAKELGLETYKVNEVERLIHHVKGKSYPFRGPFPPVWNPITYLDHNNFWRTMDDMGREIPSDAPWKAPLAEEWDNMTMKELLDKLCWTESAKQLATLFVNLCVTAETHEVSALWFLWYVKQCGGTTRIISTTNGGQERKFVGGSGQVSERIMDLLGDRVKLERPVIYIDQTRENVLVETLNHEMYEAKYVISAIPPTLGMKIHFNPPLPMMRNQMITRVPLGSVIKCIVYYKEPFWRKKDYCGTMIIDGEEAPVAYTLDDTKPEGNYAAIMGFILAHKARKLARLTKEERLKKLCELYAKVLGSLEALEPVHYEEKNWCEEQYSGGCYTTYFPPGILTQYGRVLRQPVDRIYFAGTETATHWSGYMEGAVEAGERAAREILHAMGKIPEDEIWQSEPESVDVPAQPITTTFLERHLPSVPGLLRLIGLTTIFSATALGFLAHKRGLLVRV
# TEST_METHOD_NOTES: Activity on recombinant human MAO-B, method similar to the VAP-1 assay
# Assay type: biochemical
# SETTINGS: substrate 1 mM benzylamine; read-out: Inhibitory Activity (IC50, nM) MAO-B
Structures can show the parent of a compound that is named as a salt.
OUTCOME_MEASURE: IC50 (nM)

Worked cases, IC50 given:
>  <COMPOUND>
NC/C(=C\F)Cn1ncn(Cc2ccc(/C=C/c3cnc4c(c3)NC(=O)CO4)s2)c1=O [Example 124, hydrochloride]

>  <IC50 [nM]>
5100

$$$$
>  <COMPOUND>
Cn1nc(C(F)(F)F)cc1-c1ccc(Cn2cnn(C/C(=C/F)CN)c2=O)s1

>  <IC50 [nM]>
250

$$$$
>  <COMPOUND>
NC/C(=C\F)Cn1ncn(Cc2ccc(C#Cc3cccnc3)s2)c1=O [Example 127, hydrochloride]

>  <IC50 [nM]>
150

$$$$

a = CN(C)c1ccc(-c2ccc(Cn3cnn(C/C(=C/F)CN)c3=O)s2)cn1 [Example 42, hydrochloride]
b = NC/C(=C\F)Cn1ncn(Cc2ccc(-c3cccc4cnccc34)s2)c1=O [Example 114, hydrochloride]
c = NC/C(=C\F)Cn1ncn(Cc2ccc(-c3ccc4nsnc4c3)s2)c1=O
d = NC/C(=C\F)Cn1ncn(Cc2ccc(-c3cc(F)c4c(c3)NC(=O)CO4)s2)c1=O [Example 94, hydrochloride]
e = NC/C(=C/F)Cn1ncn(Cc2ccc(-c3ccc4nonc4c3)s2)c1=O [Example 61, hydrochloride]
Query: Arrange the 5 entries by IC50 so the values rise. Your reply should list the labels following the order given in the request.
Response: e, b, c, d, a
